system: 885724-159-R-J1-PDC complex spheroid viability; test: Anticancer human tumor 885724-159-R-J1-PDC patient-derived pancreatic adenocarcinoma cell line growth inhibition [GQUAD]; details: second compound 0.0316 µM; first compound 0.0316 µM; stronger effect = lower value;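 also: spheroids exposed to agents for seven days before readout; percent of vehicle control viability where 100% = DMSO wells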
For each record, write down the corresponding viability, T/C.
# number only, unit % dropped from output

Need viability, T/C of CC[C@@]1(O)C(=O)OCc2c1cc1n(c2=O)Cc2cc3c(CN(C)C)c(O)ccc3nc2-1 + CN(C)c1ccc(Nc2c3ccc(NC(=O)CCN4CCCC4)cc3nc3cc(NC(=O)CCN4CCCC4)ccc23)cc1 , thanks.
93.6

Repeat for the following compound: CCCS(=O)(=O)Nc1ccc(F)c(C(=O)c2c[nH]c3ncc(-c4ccc(Cl)cc4)cc23)c1F + CN(C)c1ccc(Nc2c3ccc(NC(=O)CCN4CCCC4)cc3nc3cc(NC(=O)CCN4CCCC4)ccc23)cc1
112

Repeat for the following compound: COc1ccc([C@@H](O)c2cc(-c3ncnc4cc(N5CCOCC5)ccc34)c(F)cc2Cl)nn1 + Cc1cnc(CNC(=O)c2c(=O)c3ccc(N4CCCN(C)CC4)nc3n3c2sc2ccccc23)cn1
107

Repeat for the following compound: Cc1cccc(N(C)C(=O)C2C(O)CCN2c2nc(C)cc(C(F)(F)F)c2C#N)c1 (stereo not given) + Cc1[nH]c2ccc(F)cc2c1-c1nc2c3cccnc3c3ncccc3c2[nH]1
105

Repeat for the following compound: O=C(c1cc(Cc2n[nH]c(=O)c3ccccc23)ccc1F)N1CCN(C(=O)C2CC2)CC1 + CN(C)c1ccc(Nc2c3ccc(NC(=O)CCN4CCCC4)cc3nc3cc(NC(=O)CCN4CCCC4)ccc23)cc1
117
